Listed compounds paired with reported pEC50
# System: Vero
# EXPERIMENT: Antiviral activity against HSV-2 (Herpes simplex virus) in vero cells
# Format: functional
# CONDITION_SET: Chlorocebus sabaeus, read-out: ED50 (the source's name)
pEC50 here is simply -log10 of the concentration when that concentration is written in mol/L.

Record excerpt, results attached:
{"columns": ["COMPOUND", "OBSERVED_VALUE"],
 "data": [
  ["CC(=O)OCC1OC(SC2=N/C(=C\\c3cccs3)C(=O)N2c2cccc(C)c2)C(OC(C)=O)C(OC(C)=O)C1OC(C)=O (stereo not given)", 4.72],
  ["CCOC(=O)c1ccc(N2C(=O)/C(=C/c3cccs3)N=C2SC2OC(COC(C)=O)C(OC(C)=O)C(OC(C)=O)C2OC(C)=O)cc1 (stereo not given)", 4.34],
  ["CC(=O)OCC1OC(SC2=N/C(=C\\c3cccs3)C(=O)N2c2ccccc2)C(OC(C)=O)C(OC(C)=O)C1OC(C)=O (stereo not given)", 6.15]
]}

Simply: CC(=O)OCC1OC(Sc2nc(/C=C3\C=Nc4ccccc43)c(O)n2-c2ccccc2)C(OC(C)=O)C(OC(C)=O)C1OC(C)=O (stereo not given) , Vero, pEC50 = 4.40

Record COc1ccc(N2C(=O)/C(=C/c3cccs3)N=C2SC2OC(COC(C)=O)C(OC(C)=O)C(OC(C)=O)C2OC(C)=O)cc1 (stereo not given) has Vero pEC50 equal to 4.57

Record CC(=O)OCC1OC(SC2=N/C(=C\c3ccccc3)C(=O)N2c2ccccc2)C(OC(C)=O)C(OC(C)=O)C1OC(C)=O (stereo not given) has Vero pEC50 equal to 4.00

CC(=O)OCC1OC(SC2=N/C(=C\c3cccs3)C(=O)N2c2ccc(Cl)cc2)C(OC(C)=O)C(OC(C)=O)C1OC(C)=O (stereo not given) on Vero gives pEC50 = 6.00

Let me check: Nc1nc2c(ncn2COCCO)c(=O)[nH]1 , system Vero, measured pEC50 is 6.30

# pEC50 measured on Vero for item CC(=O)OCC1OC(SC2=NC(=C(C)C)C(=O)N2c2ccccc2)C(OC(C)=O)C(OC(C)=O)C1OC(C)=O (stereo not given) = 4.00

Test item O=c1[nH]c(=O)n([C@H]2C[C@H](O)[C@@H](CO)O2)cc1/C=C/Br ; Vero; reported pEC50 was 5.17

###

# Test system: Vero
# EXPERIMENT: Antiviral activity against HSV-1 (Herpes simplex virus) in vero cells
# Type: functional
# CONDITION_SET: Chlorocebus sabaeus, read-out: ED50 (the source's name)
Below, each entry is listed with its recorded EC50.
Kindly provide the numeric value in µM only, without the unit symbol.

Solved cases below.
{"columns": ["COMPOUND", "EC50 (µM)"],
 "data": [
  ["CCOC(=O)c1ccc(N2C(=O)/C(=C/c3cccs3)N=C2SC2OC(COC(C)=O)C(OC(C)=O)C(OC(C)=O)C2OC(C)=O)cc1 (centres undefined)", 32],
  ["CC(=O)OCC1OC(SC2=N/C(=C\\c3cccs3)C(=O)N2c2cccc(C)c2)C(OC(C)=O)C(OC(C)=O)C1OC(C)=O (centres undefined)", 10]
]}

Shift focus to the following entry.
Form field EC50, entry Nc1nc2c(ncn2COCCO)c(=O)[nH]1 : 0.5

###

# Tested on: Vero
# EXPERIMENT: Antiviral activity against HSV-1 (Herpes simplex virus) in vero cells
# Type: functional
# CONDITION_SET: Chlorocebus sabaeus, read-out: ED50 (the source's name)
pEC50: −log10 of the molar value.
// Condition not met strictly below 6 in pEC50; Condition met otherwise

Given CC(=O)OCC1OC(Sc2nc(/C=C3\C=Nc4ccccc43)c(O)n2-c2ccccc2)C(OC(C)=O)C(OC(C)=O)C1OC(C)=O (stereo unspecified) , state whether its pEC50 is at least 6.
Condition not met

Exam item: decide whether the reported pEC50 for CC(=O)OCC1OC(SC2=N/C(=C\c3cccs3)C(=O)N2c2ccc(Cl)cc2)C(OC(C)=O)C(OC(C)=O)C1OC(C)=O (stereo unspecified) is at least 6.
Condition met

Threshold query (pEC50 >= 6) on COc1ccc(N2C(=O)/C(=C/c3cccs3)N=C2SC2OC(COC(C)=O)C(OC(C)=O)C(OC(C)=O)C2OC(C)=O)cc1 (stereo unspecified)
Condition not met

Identify whether the reported pEC50 of the following compound is 6 or greater: CC(=O)OCC1OC(SC2=N/C(=C\c3cccs3)C(=O)N2c2ccccc2)C(OC(C)=O)C(OC(C)=O)C1OC(C)=O (stereo unspecified)
Condition met

Can CC(=O)OCC1OC(SC2=NC(=C(C)C)C(=O)N2c2ccccc2)C(OC(C)=O)C(OC(C)=O)C1OC(C)=O (stereo unspecified) be said to have pEC50 at or above 6?
Condition not met

Hi team, for O=c1[nH]c(=O)n([C@H]2C[C@H](O)[C@@H](CO)O2)cc1/C=C/Br , is the recorded pEC50 at or above 6?
Condition met

Where these numbers come from: ChEMBL document CHEMBL1127499
